The following molecules are shown together with reported TGI values.
- Test system: A549 NSCLC
- ASSAY PROTOCOL: NCI tumour cell line growth inhibition, 48 h

{"SMILES STRING": "COc1ccc2c(C=O)c3n(c(=O)c2c1OC)CCc1cc2c(cc1-3)OCO2", "TARGET SYSTEM": "A549 NSCLC", "TGI": "> 100 µM"}

May I ask what TGI has been recorded for COc1ccc(N=C(SSC(=Nc2ccc(OC)cc2)c2ccc([N+](=O)[O-])o2)c2ccc([N+](=O)[O-])o2)cc1 ?
> 100 µM

# query: TGI of entry Cc1ccc(S(=O)(=O)NCc2cccc([N+](=O)[O-])c2)cc1
> 100 µM

Please look up its TGI: O=C1C[C@@]23CCC4(CC2=CCC[C@H]3O1)OCCO4
> 100 µM

Request the reported TGI associated with CCOP(=O)(OCC)/C(C#N)=C(\C)c1ccco1
> 10 µM

Could you tell me which TGI is on file for O=C1c2sccc2C(=O)c2c(CO)csc21 ?
6.7 µM

Give its TGI value. Item: CCOC(=O)c1c(SCCN(CC)CC)n(-c2ccccc2)c(=S)n(-c2ccccc2)c1=O
9.42 µM

TGI for Cc1cc2c(SCc3ccccc3Cl)nc(N)nc2nc1C ?
> 100 µM

TGI lookup needed for CCOC(=O)C1=C(O)c2c(OC)ccc(OC)c2C(=O)C1=O , thanks.
> 100 µM

----------
- Test system: SF-539 CNS
- ASSAY PROTOCOL: NCI tumour cell line growth inhibition, 48 h
MEASURED PROPERTY: TGI (µM)
Give just the number in µM; leave the unit off.

Answered examples (4):
{"MOLECULE": "CCOC(=O)C(NC(=O)c1cccc(Cl)c1)(N1CCN(c2cc3c(cc2F)c(=O)c(C(=O)O)cn3CC)CC1)C(F)(F)F (stereo not given)", "TGI [µM]": 30.2}
{"MOLECULE": "O=C(Nc1cccc(C(F)(F)F)c1)Nc1cc(S(=O)(=O)NC2CC2)ccc1-c1ccsc1", "TGI [µM]": 16.4}
{"MOLECULE": "O=C(/C=C/N1CCN(c2cccc(Cl)c2)CC1)c1ccc(Cl)cc1", "TGI [µM]": 47.7}
{"MOLECULE": "CS(=O)(=O)Nc1ccc(Nc2c3ccccc3nc3cc(Cl)ccc23)cc1", "TGI [µM]": 13.5}

Entry Cc1ccc(C)c(C(=O)CC2OC(O)C(Cl)C2Cl)c1 (stereo not given) has what TGI?
53.2

Given the molecule O=C(Nc1cccc(C(F)(F)F)c1)Nc1ccc(OCc2nnc(-c3ccccc3)o2)c(F)c1 , what is its reported TGI?
23.2

Value lookup for TGI; key = O=C1Cc2c(-c3ccccc3)cc(-c3ccc(Cl)cc3)nc2-c2ccccc2N1
19.8

----------
- Test system: LOX IMVI melanoma
- ASSAY PROTOCOL: NCI tumour cell line growth inhibition, 48 h
Collected TGI values appear next to each entry.
Report as a plain number; the unit µM is understood.

Example entries and their recorded answers appear below.
{"COMPOUND": "CC(=O)OCc1cc2c(s1)C(=O)c1sccc1C2=O", "TARGET SYSTEM": "LOX IMVI melanoma", "UNIT": "µM", "TGI": 0.0468}
{"COMPOUND": "NNC(=O)COc1nc(-c2cccs2)nc2ccc(I)cc12", "TARGET SYSTEM": "LOX IMVI melanoma", "UNIT": "µM", "TGI": 36.9}
{"COMPOUND": "N#Cc1c(N)nc(N2CCOCC2)c(C#N)c1-c1ccc(Cl)cc1Cl", "TARGET SYSTEM": "LOX IMVI melanoma", "UNIT": "µM", "TGI": 34.2}
{"COMPOUND": "CS(=O)(=O)Nc1ccc(Nc2c3ccccc3nc3cc(Cl)ccc23)cc1", "TARGET SYSTEM": "LOX IMVI melanoma", "UNIT": "µM", "TGI": 4.79}
{"COMPOUND": "CC(=O)OC1CCC2(C)C(=CCC3C4CC(CN5CC5)C(=O)C4(C)CCC32)C1 (configuration not stated)", "TARGET SYSTEM": "LOX IMVI melanoma", "UNIT": "µM", "TGI": 18.2}

Find the recorded TGI belonging to CN1CCN(Cc2ccc(NC(=O)c3cncc(C#Cc4cnc5cccnn45)c3)cc2C(F)(F)F)CC1 and report it.
2.98

Find the recorded TGI belonging to CSC(=NCCCN=C(NS(=O)(=O)c1ccc(Cl)cc1)SC)NS(=O)(=O)c1ccc(Cl)cc1 and report it.
70.6

----------
Each entry below carries its recorded TGI.
- Tested on: OVCAR-8 ovarian
- ASSAY PROTOCOL: NCI tumour cell line growth inhibition, 48 h

Examples with answers:
{"COMPOUND": "NC1=NN(c2ccccc2)C(=O)C1/C(=N\\NC(=O)c1cc2ccccc2cc1O)C(=O)Nc1ccc(Cl)cc1 (stereo unspecified)", "TARGET SYSTEM": "OVCAR-8 ovarian", "RESULT": "> 100 µM"}
{"COMPOUND": "CCCCCCCCCCCCCCCC(=O)OCC(COP(=O)(O)OCCNC(=O)CCSSc1ccccn1)OC(=O)CCCCCCCCCCCCCCC (stereo unspecified)", "TARGET SYSTEM": "OVCAR-8 ovarian", "RESULT": "> 100 µM"}
{"COMPOUND": "CC(=O)Oc1cc(OC(C)=O)c2c(c1C)CC[C@@H]1[C@@H]2CC[C@]2(C)[C@@H](OC(C)=O)CC[C@@H]12", "TARGET SYSTEM": "OVCAR-8 ovarian", "RESULT": "42.4 µM"}
{"COMPOUND": "CC(=O)Oc1c(OC(C)C)cc(=O)n2ccsc12", "TARGET SYSTEM": "OVCAR-8 ovarian", "RESULT": "> 100 µM"}
{"COMPOUND": "Cn1c(=O)c2c(n(C)c1=O)n1c(=O)c3ccccc3nc1n2C", "TARGET SYSTEM": "OVCAR-8 ovarian", "RESULT": "> 100 µM"}

For the compound shown here, ClCc1ccc(Cn2cnc3nc(Cl)nc(Cl)c32)cc1 , give the reported TGI.
3.66 µM

Name the recorded TGI for CC(C)[C@H](NC(=O)OCc1ccccc1)C(=O)N[C@H](/C=C/C(=O)OC(C)(C)C)CO .
> 100 µM

Consider the compound CC(C)C12CCC3(CCC4C(C)(C(=O)O)CCCC4(C)C3C1)C(CN)C2 (stereo unspecified) and give its measured TGI.
> 100 µM

I'd like to know its TGI. The compound in question is Clc1cc2ncn(C3CCCO3)c2cc1Cl (stereo unspecified)
> 100 µM

Fill in: TGI of CC(C)(C)OC(=O)NCCCCC1NC(=O)[C@@H]2Cc3c([nH]c4ccccc34)C(c3ccccc3)N2C1=O (stereo partly specified) is ___
> 100 µM

Give the measured TGI of CSC(=NCCCN=C(NS(=O)(=O)c1ccc(Cl)cc1)SC)NS(=O)(=O)c1ccc(Cl)cc1 .
> 100 µM

Could you tell me which TGI is on file for CCCCCCCCCCCCCCCC(=O)NCC(OCC)OCC ?
> 100 µM

Tell me the measured TGI of O=C1COc2c(CCNCCN(C(=O)CCNCCc3ccc(Cl)c(Cl)c3)C3CCCCC3)ccc(O)c2N1 , please.
34 µM

Bench note: what TGI did C=CCCC1(CCP(=O)(c2ccccc2)c2ccccc2)OCCO1 show?
> 100 µM

// returns reported TGI for input O=C1C(=O)c2c(ccc3ccccc23)-c2ccccc21
7.98 µM

For the compound O=P1(C(O)c2ccccc2)N(Cc2ccccc2)[C@@H]2CCCC[C@H]2N1Cc1ccccc1 (stereo partly specified) , what TGI is on record?
> 100 µM

# input compound: N#Cc1c(N)nc(N2CCOCC2)c(C#N)c1-c1ccc(Cl)cc1Cl ; wanted: its TGI
54.5 µM

----------
- Tested on: A549 NSCLC
- ASSAY PROTOCOL: NCI tumour cell line growth inhibition, 48 h
MEASURED PROPERTY: TGI

The following molecules have reported results that may help.
{"MOLECULE": "CN1OC(CO)CC12C1CC3CC(C1)CC2C3 (stereo not drawn)", "TGI": "> 100 µM"}
{"MOLECULE": "CNc1nc(OC)c2c(n1)[n+](C)cn2C", "TGI": "> 100 µM"}
{"MOLECULE": "FC(F)(Sc1nc2ccccc2[nH]1)c1nc2ccccc2o1", "TGI": "> 100 µM"}
{"MOLECULE": "CCCCc1c2c(nc3c1CC/C(=C\\c1ccccc1)C3=O)CCCC2", "TGI": "28 µM"}
{"MOLECULE": "CC1=CC(=O)N2[C@H](OC[C@@H]2C(C)C)O1", "TGI": "> 100 µM"}
{"MOLECULE": "CCOC(=O)c1ccc(-c2cccs2)[nH]1", "TGI": "> 100 µM"}
{"MOLECULE": "COc1ccc(-c2cc(=O)c3cc(OC)c(OC)cc3[nH]2)cc1OC", "TGI": "> 100 µM"}
{"MOLECULE": "O=C(CCc1ccccc1)NCCc1ccc(O)c(O)c1", "TGI": "> 100 µM"}

Query (molecule): O=C(/C=C/N1CCN(c2cccc(Cl)c2)CC1)c1ccc(Cl)cc1 ; field requested: TGI
> 100 µM

Which value of TGI has been reported for O=C1COc2c(CCNCCN(C(=O)CCNCCc3ccc(Cl)c(Cl)c3)C3CCCCC3)ccc(O)c2N1 in the records?
44.8 µM
